target: ARHGEF12, Q9NZN5-2; assay: holdup assay; parameters: key: below the threshold = too weak to quantify, mostly under pKd 3.1 to 4; settings: plain residues with an end cap or a label only (N-terminal biotin on a linker: ado-ado)
Sequence (Q9NZN5 other isoform, or with tags, fused parts or gaps): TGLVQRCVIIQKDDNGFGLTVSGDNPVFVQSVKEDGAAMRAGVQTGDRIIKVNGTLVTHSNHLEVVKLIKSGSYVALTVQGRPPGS
value_type: pKd

| binder | value_type | numeric_result |
| --- | --- | --- |
| RRISSLESEV [GRIN2C, Q14957] | pKd | 4.31 |
| VNKSKLLTDV [KCNA1, Q09470] | pKd | 4.56 |
| GQEEQVTTRL [TRPC5, Q9UL62] | pKd | 4.9 |
| PRISRSQSEL [CCDC134, Q9H6E4] | pKd | 4.27 |
| IKAIVDLTGL [TRAF2, Q12933] | pKd | 3.5 |
| EVEEFPETSV [TRPV3, Q8NET8] | pKd | 3.94 |
